I'd appreciate it if you could supply KDR tyrosine phosphorylation in HUVEC, EC50 (nM), Average values for the items below.
# tested-on: human KDR (human, UniProt P35968 20-1356)
# Sequence (P35968 20-1356): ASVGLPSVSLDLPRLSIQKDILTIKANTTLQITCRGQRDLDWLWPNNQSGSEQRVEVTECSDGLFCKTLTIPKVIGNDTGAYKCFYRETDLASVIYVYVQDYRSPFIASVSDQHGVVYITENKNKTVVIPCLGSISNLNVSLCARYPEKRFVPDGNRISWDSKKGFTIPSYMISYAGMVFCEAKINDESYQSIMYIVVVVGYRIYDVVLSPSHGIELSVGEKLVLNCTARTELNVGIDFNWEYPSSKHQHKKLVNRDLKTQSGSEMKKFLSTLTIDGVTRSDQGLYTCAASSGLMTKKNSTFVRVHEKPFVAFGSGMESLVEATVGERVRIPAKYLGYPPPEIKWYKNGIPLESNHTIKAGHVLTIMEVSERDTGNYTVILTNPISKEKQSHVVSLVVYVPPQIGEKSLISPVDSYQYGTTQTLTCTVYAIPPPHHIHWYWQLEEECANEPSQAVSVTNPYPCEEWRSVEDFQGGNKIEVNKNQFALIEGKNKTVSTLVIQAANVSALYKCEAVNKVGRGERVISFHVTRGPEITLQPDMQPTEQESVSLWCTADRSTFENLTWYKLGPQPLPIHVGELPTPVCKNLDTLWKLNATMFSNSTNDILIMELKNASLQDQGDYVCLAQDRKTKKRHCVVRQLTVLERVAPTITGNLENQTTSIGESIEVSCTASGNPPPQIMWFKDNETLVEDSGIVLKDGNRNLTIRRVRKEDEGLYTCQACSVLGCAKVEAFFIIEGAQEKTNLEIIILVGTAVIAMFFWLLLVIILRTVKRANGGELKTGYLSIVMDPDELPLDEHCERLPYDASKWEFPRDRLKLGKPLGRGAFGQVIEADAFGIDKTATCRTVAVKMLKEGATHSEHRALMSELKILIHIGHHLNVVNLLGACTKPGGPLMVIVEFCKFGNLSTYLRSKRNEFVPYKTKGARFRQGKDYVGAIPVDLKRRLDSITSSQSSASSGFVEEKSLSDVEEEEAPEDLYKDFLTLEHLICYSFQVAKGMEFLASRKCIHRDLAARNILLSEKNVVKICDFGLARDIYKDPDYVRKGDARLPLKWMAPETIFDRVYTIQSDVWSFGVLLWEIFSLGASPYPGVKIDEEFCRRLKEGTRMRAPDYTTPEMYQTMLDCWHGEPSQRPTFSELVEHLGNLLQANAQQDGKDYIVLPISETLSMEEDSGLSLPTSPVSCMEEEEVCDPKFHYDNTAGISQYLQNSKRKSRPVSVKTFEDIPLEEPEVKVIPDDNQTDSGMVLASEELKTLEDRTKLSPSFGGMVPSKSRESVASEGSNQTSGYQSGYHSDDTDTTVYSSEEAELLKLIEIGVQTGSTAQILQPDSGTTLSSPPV
# protocol-description: cell-based or functional assay
Output should be the measured figure followed by the unit it is expressed in.

q: Give recorded KDR tyrosine phosphorylation in HUVEC, EC50 (nM), Average. 22B8 (antibody, V domains shown, Fully human monoclonal antibody from a XenoMouse hybridoma (IgG2 or IgG4 strain), purified) VH: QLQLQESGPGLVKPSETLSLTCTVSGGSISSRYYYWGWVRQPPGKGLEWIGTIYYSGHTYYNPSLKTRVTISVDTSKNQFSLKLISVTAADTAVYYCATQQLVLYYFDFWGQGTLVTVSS VL: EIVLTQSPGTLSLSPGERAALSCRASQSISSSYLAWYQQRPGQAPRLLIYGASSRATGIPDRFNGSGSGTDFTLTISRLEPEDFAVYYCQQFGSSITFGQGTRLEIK
a: 3.1 nM

q: Give recorded KDR tyrosine phosphorylation in HUVEC, EC50 (nM), Average. 24B3 (antibody, V domains shown, Fully human monoclonal antibody from a XenoMouse hybridoma (IgG2 or IgG4 strain), purified) VH: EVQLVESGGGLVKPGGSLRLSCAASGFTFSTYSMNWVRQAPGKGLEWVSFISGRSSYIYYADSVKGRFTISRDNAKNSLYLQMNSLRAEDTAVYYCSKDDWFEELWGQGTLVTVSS VL: DIQMTQSPSSLSASVGDRVTITCRASQGIRSDLGWYQQKPGKAPKRLIYATSSLQSGVPSRFSGSGSGTEFTLTISSLQPEDFATYYCLQHNRYPWTFGQGTKVEIK
a: 2.2 nM

# credit: patent US20100260765A1
